Please go through the items and note down their log10(IC50).
Test system: MDA-MB-231
Experiment: Antiproliferative activity against human MDA-MB-231 cells assessed as reduction in cell viability incubated for 72 hrs by MTT assay
Assay type: functional, cell-based
Settings: MDA-MB-231, 72 h
Remember, log10 of IC50, in nM.

Data request: Reported log10(IC50) for C=C1C(=O)[C@]23[C@H](O)[C@H]1CC[C@H]2[C@]12CCCC(C)(C)[C@H]1[C@H](O)[C@@]3(O)OC2 : what is it?
Data returned: 3.31

Data request: I'd like to know its log10(IC50). The compound in question is C=C1C(=O)[C@]23[C@H](OC(=O)/C=C/c4ccncc4)[C@H]1CC[C@H]2[C@]12C=CCC(C)(C)[C@H]1[C@H](O)[C@@]3(O)OC2
Data returned: 2.81

Data request: For C=C1C(=O)[C@@]23C(=O)[C@@H](OC(C)=O)[C@@H]4C(C)(C)CCC[C@@]4(COC(C)=O)[C@@H]2CC[C@@H]1[C@H]3OC(C)=O , what is its reported log10(IC50)?
Data returned: 3.20

Data request: Given C=C1C(=O)[C@]23[C@H](O)[C@H]1CC[C@H]2[C@]12CCCC(C)(C)[C@H]1C[C@@]3(O)OC2 , state its recorded log10(IC50).
Data returned: 3.40

Data request: # lookup: log10(IC50) of C=C1C(=O)[C@]23[C@H](O)[C@H]1CC[C@H]2[C@@]12CO[C@]3(O)[C@@H](O)[C@@H]1C(C)(C)CC[C@@H]2O [ORIDONIN]
Data returned: 4.06

Data request: Reported log10(IC50) for C=C1C(=O)[C@]23[C@H](OC(=O)/C=C/c4ccncc4)[C@H]1CC[C@H]2[C@]12CCCC(C)(C)[C@H]1[C@H](O)[C@@]3(O)OC2 : what is it?
Data returned: 2.62

Data request: GET /values?readout=log10(IC50)&item= C=C1C(=O)[C@]23[C@H](OC(=O)/C=C/c4ccncc4)[C@H]1CC[C@H]2[C@]12CCCC(C)(C)[C@H]1C[C@@]3(O)OC2
Data returned: 2.86

Data request: What value of log10(IC50) has been reported for the following compound? C=C1C(=O)[C@]23[C@H](O)[C@H]1CC[C@H]2[C@]12C=CCC(C)(C)[C@H]1[C@H](O)[C@@]3(O)OC2
Data returned: 3.27

Data request: Dear colleague, I am looking for the recorded log10(IC50) of the following compound: C=C1C(=O)[C@@]23C(=O)C[C@@H]4C(C)(C)CCC[C@@]4(COC(C)=O)[C@@H]2CC[C@@H]1[C@H]3OC(C)=O
Data returned: 3.22

Data request: Endpoint output: log10(IC50) of C=C1C(=O)[C@@]23C(=O)[C@@H](OC(C)=O)[C@@H]4C(C)(C)CC=C[C@@]4(COC(C)=O)[C@@H]2CC[C@@H]1[C@H]3OC(C)=O . Value?
Data returned: 3.50

###

So I've got a bunch of compounds here, and I need their selectivity ratio values.
Assay: Selectivity index, ratio of IC50 for human L02 cells to IC50 for human SMMC-7721 cells
Assay type: toxicity
Details: L02 cells and SMMC-7721 cells, read-out: Ratio IC50
Keep it simple and answer with nothing but the number.

Data request: selectivity ratio for C=C1C(=O)[C@]23[C@H](OC(=O)/C=C/c4ccncc4)[C@H]1CC[C@H]2[C@]12CCCC(C)(C)[C@H]1[C@H](O)[C@@]3(O)OC2 ?
Data returned: 7.12

Data request: Which selectivity ratio is listed for C=C1C(=O)[C@]23[C@H](OC(=O)/C=C/c4ccncc4)[C@H]1CC[C@H]2[C@]12CCCC(C)(C)[C@H]1C[C@@]3(O)OC2 ?
Data returned: 6.79

Data request: Need selectivity ratio, item C=C1C(=O)[C@]23[C@H](OC(=O)/C=C/c4ccncc4)[C@H]1CC[C@H]2[C@]12C=CCC(C)(C)[C@H]1[C@H](O)[C@@]3(O)OC2
Data returned: 17.7

Data request: Consider the compound C=C1C(=O)[C@]23[C@H](O)[C@H]1CC[C@H]2[C@@]12CO[C@]3(O)[C@@H](O)[C@@H]1C(C)(C)CC[C@@H]2O [ORIDONIN] and give its measured selectivity ratio.
Data returned: 2.73

###

Experiment: Antiproliferative activity against human U-87 MG cells assessed as reduction in cell viability incubated for 72 hrs by MTT assay
Type: functional, cell-based, U-87MG ATCC
For each of the compounds below, state its IC50.
Numeric only. Scale: nM

Data request: Given the compound C=C1C(=O)[C@]23[C@H](OC(=O)/C=C/c4ccncc4)[C@H]1CC[C@H]2[C@]12C=CCC(C)(C)[C@H]1[C@H](O)[C@@]3(O)OC2 , what is its reported IC50?
Data returned: 1160

Data request: Fill in: IC50 of C=C1C(=O)[C@]23[C@H](O)[C@H]1CC[C@H]2[C@@]12CO[C@]3(O)[C@@H](O)[C@@H]1C(C)(C)CC[C@@H]2O [ORIDONIN] is ___
Data returned: 14000

Data request: Item under review: C=C1C(=O)[C@]23[C@H](OC(=O)/C=C/c4ccncc4)[C@H]1CC[C@H]2[C@]12CCCC(C)(C)[C@H]1C[C@@]3(O)OC2 . Reported IC50?
Data returned: 900

Data request: Sample C=C1C(=O)[C@]23[C@H](OC(=O)/C=C/c4ccncc4)[C@H]1CC[C@H]2[C@]12CCCC(C)(C)[C@H]1[C@H](O)[C@@]3(O)OC2 — what was its IC50?
Data returned: 840

###

Would you kindly list IC50 at 72 h for each of these compounds?
Test: Cytotoxicity against human L02 cells assessed as reduction in cell viability incubated for 72 hrs by MTT assay
Format: toxicity, cell-based
Please give a number only; it is taken to be in µM.

Data request: // IC50 at 72 h lookup, key: C=C1C(=O)[C@]23[C@H](OC(=O)/C=C/c4ccncc4)[C@H]1CC[C@H]2[C@]12C=CCC(C)(C)[C@H]1[C@H](O)[C@@]3(O)OC2
Data returned: 6.23

Data request: IC50 at 72 h for C=C1C(=O)[C@]23[C@H](O)[C@H]1CC[C@H]2[C@@]12CO[C@]3(O)[C@@H](O)[C@@H]1C(C)(C)CC[C@@H]2O [ORIDONIN] ?
Data returned: 34.3

Data request: Item under review: C=C1C(=O)[C@]23[C@H](OC(=O)/C=C/c4ccncc4)[C@H]1CC[C@H]2[C@]12CCCC(C)(C)[C@H]1C[C@@]3(O)OC2 . Reported IC50 at 72 h?
Data returned: 5.24

Data request: What IC50 at 72 h value was documented for this compound, C=C1C(=O)[C@]23[C@H](OC(=O)/C=C/c4ccncc4)[C@H]1CC[C@H]2[C@]12CCCC(C)(C)[C@H]1[C@H](O)[C@@]3(O)OC2 ?
Data returned: 3.18
